Collected In vitro Activity Compared to Native Peptide (%) vs. Glucagon values appear next to each entry.
Molecular target: human GCG receptor (human, UniProt P47871 26-477)
Sequence (P47871 26-477): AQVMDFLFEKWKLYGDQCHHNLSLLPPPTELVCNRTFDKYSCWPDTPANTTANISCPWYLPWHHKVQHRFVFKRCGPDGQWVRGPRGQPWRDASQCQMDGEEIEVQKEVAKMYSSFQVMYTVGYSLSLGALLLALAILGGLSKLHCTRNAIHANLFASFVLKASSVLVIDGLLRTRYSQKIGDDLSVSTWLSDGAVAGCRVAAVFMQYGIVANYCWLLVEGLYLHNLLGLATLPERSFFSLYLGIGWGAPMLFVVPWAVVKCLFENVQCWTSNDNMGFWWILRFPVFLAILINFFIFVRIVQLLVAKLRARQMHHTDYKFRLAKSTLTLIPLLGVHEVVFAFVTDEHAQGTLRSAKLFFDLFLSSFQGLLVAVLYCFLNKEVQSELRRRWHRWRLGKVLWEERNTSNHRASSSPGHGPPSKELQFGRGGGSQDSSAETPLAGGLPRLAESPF
Assay: cell-based or functional assay
Positions of bridges follow the written chain, without caps; N, C: chain ends. Non-standard residues stand in square brackets, D forms with d. No end group written: not given here. Aib = CC(C)(N)C(=O)O
Your answer should be a plain number; it is taken to be in %.

Example cases with answers are listed next.
binder	numeric_value
Y[Aib]QGTFTSDYSKALDEKAAKEFVQWLLDQHPSSGQPPPSC (bridge 16-20) [triple agonist of SEQ ID NO: 100]	12.7
Y[Aib]QGTFTSDYSKALDEKAAKDFVNWLLDHHPSSGQPPPSC (bridge 16-20) [triple agonist of SEQ ID NO: 99]	14.9

[in] // query In vitro Activity Compared to Native Peptide (%) vs. Glucagon value for entry Y[Aib]QGTFTSDYSKYLDECAAKEFVQWLLDHHPSSGQPPPS (bridge 16-20) [triple agonist of SEQ ID NO: 64]
[out] 60.1
